Numbers sourced from ChEMBL document CHEMBL1141727.

# maps each entry to its GI50
# Test system: EKVX
# ASSAY EXPLANATION: Growth inhibition of human EKVX cells
# Type: functional
Numeric answer only, unit µM assumed.

>>> print(df.to_string())
                                   compound  property  test_result
0  C=C1CCCC(C)(C)C1CC[C@]1(C)CC[C@H]([C@@H](C)C(=O)OC)OO1 (some centres undefined)      GI50          7.9

query: Can you share its GI50? I mean this compound: C=C1CCC[C@H]2[C@](C)(CC[C@]3(C)CC[C@@H]([C@@H](C)C(=O)O)OO3)[C@@H](C)CC[C@]12C
result: 1.09
